Target: human full-length MKNK1 (Homo sapiens (Human), UniProt Q9BUB5, T344D)
Sequence (Q9BUB5 other isoform, or with tags, fused parts or gaps T344D): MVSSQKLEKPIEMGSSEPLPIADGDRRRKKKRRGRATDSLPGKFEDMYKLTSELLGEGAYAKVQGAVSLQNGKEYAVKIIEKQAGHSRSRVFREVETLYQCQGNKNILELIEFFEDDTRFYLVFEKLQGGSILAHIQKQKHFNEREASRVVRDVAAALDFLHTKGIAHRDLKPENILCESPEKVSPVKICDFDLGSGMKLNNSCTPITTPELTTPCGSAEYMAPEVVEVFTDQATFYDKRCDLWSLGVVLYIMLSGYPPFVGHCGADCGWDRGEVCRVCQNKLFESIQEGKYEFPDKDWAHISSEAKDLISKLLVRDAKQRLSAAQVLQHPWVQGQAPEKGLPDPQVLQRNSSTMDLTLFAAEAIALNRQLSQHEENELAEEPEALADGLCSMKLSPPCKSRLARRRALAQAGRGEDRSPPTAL
Test: MKNK1 kinase assay (MKNK1 TR-FRET assay)
Format: biochemical
Details: GST-MKNK1 (T344D), 10 μM ATP, average or median values
Quick reference for IC50 among some compounds
Please reply with the bare figure in µM and do not write the unit itself.

These solved cases illustrate the format of a correct answer.
compound: COc1cccc2oc(-c3cnc4ccc(OCCCS(C)(=O)=NC(=O)C(F)(F)F)nn34)cc12 (stereo not shown) [Example IV.1]
unit.abbreviation: µM
IC50: 0.009
//
compound: COc1nccc2oc(-c3cnc4ccc(OCCCS(C)(=O)=NC#N)nn34)cc12 (stereo not shown) [Example IV.9]
unit.abbreviation: µM
IC50: 0.009
//
compound: CS(=O)(=O)CCCOc1ccc2ncc(-c3cc4cccc(F)c4o3)n2n1 [Example III.6]
unit.abbreviation: µM
IC50: 0.048
//
compound: CS(=O)(=O)CCCOc1ccc2ncc(-c3cc4cc(F)ccc4o3)n2n1 [Example III.4]
unit.abbreviation: µM
IC50: 0.007
//
compound: CSCCOc1ccc2ncc(-c3cc4ccccc4o3)n2n1 [Example I.4]
unit.abbreviation: µM
IC50: 0.016
//
compound: CSCCCOc1ccc2ncc(-c3cc4ccccc4o3)n2n1 [Example I.2]
unit.abbreviation: µM
IC50: 0.011

Requested field: IC50. Item: COc1cccc2oc(-c3cnc4ccc(OCCCS(C)(=O)=O)nn34)cc12 [Example III.3]
0.002

Given the entry Cc1c(-c2cnc3ccc(OCCCS(C)(=O)=O)nn23)oc2ccccc12 [Example III.7] , report its measured IC50.
0.061

Can you share its IC50? I mean this compound: CS(=O)(=O)CCCOc1ccc2ncc(-c3cc4c(F)cccc4o3)n2n1 [Example III.9]
0.017

GET /values?readout=IC50&item= CS(=O)(=O)CCCOc1ccc2ncc(-c3cc4ccccc4o3)n2n1 [Example III.1]
0.005

Entry CS(=O)(CCOc1ccc2ncc(-c3cc4ccccc4o3)n2n1)=NC(=O)C(F)(F)F (stereo not shown) [Example IV.7] : reported IC50 = ?
0.047

Using the record for C[S+]([O-])CCCOc1ccc2ncc(-c3cc4ccccc4o3)n2n1 (stereo not shown) [Example II.2] , report its IC50.
0.004

IC50 lookup needed for CS(=O)(=O)CCCOc1ccc2ncc(-c3cc4ncccc4o3)n2n1 [Example III.14] , thanks.
0.06

Would you mind telling me what IC50 value was observed for COc1cccc2oc(-c3cnc4ccc(OCCC[S+](C)[O-])nn34)cc12 (stereo not shown) [Example II.1] ?
0.002

# query: IC50 of entry Cc1cccc2cc(-c3cnc4ccc(OCCCS(C)(=O)=O)nn34)oc12 [Example III.8]
0.07

----------
// reported IC50 per item
Target: human full-length MKNK1 (Homo sapiens (Human), UniProt Q9BUB5, T344D)
Test: MKNK1 kinase assay (MKNK1 TR-FRET assay)
Settings: GST-MKNK1 (T344D), 10 μM ATP, average or median values
Write it as a number; the unit nM goes unstated.

compound: C[S+]([O-])CCCCOc1ccc2ncc(-c3cc4ccccc4o3)n2n1 (stereo not drawn)
IC50, nM: 5
--
compound: CS(=O)(=O)CCCOc1ccc2ncc(-c3cc4cc(Cl)ccc4o3)n2n1
IC50, nM: 15
--
compound: CS(=O)(=O)CCCOc1nn2c(-c3cc4ccccc4o3)cnc2cc1-c1ccccc1
IC50, nM: 17
--
compound: CSCCCCOc1ccc2ncc(-c3cc4ccccc4o3)n2n1
IC50, nM: 27

Entry CS(=O)(CCCOc1ccc2ncc(-c3cc4ccccc4o3)n2n1)=NC#N (stereo not drawn) has what IC50?
7

Entry CS(=O)(=O)CCCOc1ccc2ncc(-c3cc4cnccc4o3)n2n1 : reported IC50 = ?
28

Param item = CS(=O)(CCCCOc1ccc2ncc(-c3cc4ccccc4o3)n2n1)=NC(=O)C(F)(F)F (stereo not drawn) ; retrieve measured IC50.
15

Look up IC50 for this compound: CS(=N)(=O)CCCOc1ccc2ncc(-c3cc4ccccc4o3)n2n1 (stereo not drawn)
4

# query: IC50 of entry Cc1cc2ncc(-c3cc4ccccc4o3)n2nc1OCCCS(C)(=O)=O
11

Entry source: patent US9320737B2
